# System: CEM cells HIV-1 protection, formazan growth assay
# assay_method_text: NCI AIDS Antiviral Assay
# EC50 per record follows

- compound: "CCCCN(CCCC)c1ccc(/C=C2/C=Cc3ccccc32)cc1"
  experimental_system: "CEM cells HIV-1 protection, formazan growth assay"
  value_measured: "> 11.2 µM"
- compound: "COc1cccc(NC(=O)CC(=O)Nc2cccc(OC)c2)c1"
  experimental_system: "CEM cells HIV-1 protection, formazan growth assay"
  value_measured: "> 200 µM"
- compound: "CC(=O)/C(=C/N1C(=O)CC(=O)NC1=S)C(=O)Nc1ccccc1C"
  experimental_system: "CEM cells HIV-1 protection, formazan growth assay"
  value_measured: "> 200 µM"
- compound: "Clc1ccc(OCc2nnc(CCCCCCCCc3nnc(COc4ccc(Cl)cc4Cl)n3Nc3ccccc3)n2Nc2ccccc2)c(Cl)c1"
  experimental_system: "CEM cells HIV-1 protection, formazan growth assay"
  value_measured: "> 0.501 µM"
- compound: "COC/C=C\\[C@]1(O)CCCC[C@@H]1CC(OC)OC"
  experimental_system: "CEM cells HIV-1 protection, formazan growth assay"
  value_measured: "> 200 µM"
- compound: "CC(=O)Nc1ccc(/C=C2\\C(=O)NC(=S)N2/C=C(\\C#N)c2ccc([N+](=O)[O-])cc2)cc1"
  experimental_system: "CEM cells HIV-1 protection, formazan growth assay"
  value_measured: "> 200 µM"
- compound: "O=C(O)C1CCN1Cc1ccc2ccccc2c1O (stereo not given)"
  experimental_system: "CEM cells HIV-1 protection, formazan growth assay"
  value_measured: "> 200 µM"
- compound: "OCCN=C1c2ccccc2C2C(c3ccccc31)C1c3ccccc3C(=NCCO)c3ccccc3C21 (stereo not given)"
  experimental_system: "CEM cells HIV-1 protection, formazan growth assay"
  value_measured: "> 200 µM"

Incoming: For CEM cells HIV-1 protection, formazan growth assay, give the measured EC50 of the entry N=c1n(CC(=O)NC23CC4CC(CC(C4)C2)C3)c2ccccc2n1Cc1ccccc1
Outgoing: > 79.4 µM

Incoming: For CEM cells HIV-1 protection, formazan growth assay, give the measured EC50 of the entry [N-]=[N+]=NC1C2CC3CC(C2)CC1C3 (stereo not given)
Outgoing: > 77.6 µM

----------
# Tested on: CEM cells HIV-1 protection, formazan growth assay
# assay_method_text: NCI AIDS Antiviral Assay;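 active means compounds giving half or more protection of infected cells from virus-caused growth loss, again on retest; inactive means the rest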
# output must be one of y = active, n = inactive

Illustrative cases are given below, each with its answer.
- compound: "Cc1ccc(S(=O)(=O)/C(C#N)=C/NC(=S)Nc2ccccc2)cc1"
  label_class: "n"
- compound: "c1ccc2sc(SCN3CCCCC3)nc2c1"
  label_class: "n"
- compound: "CCC1(CC)C(=O)NN(C(=O)c2ccc(Cl)cc2)C1=O"
  label_class: "n"
- compound: "CCOC(=O)[C@@H]1[C@@H](c2ccccc2)N(C)O[C@@]1(c1ccccc1)C(F)(F)F"
  label_class: "n"
- compound: "Oc1[nH]c2ccccc2c1N=NC(=S)N1CCCC1"
  label_class: "n"

Incoming: Which outcome was assigned to CC1=C(C)CS(=O)N(c2ccccc2)C1 (stereo not drawn) in this test?
Outgoing: n

Incoming: Which outcome was assigned to Oc1ccccc1-c1nnc2sc3c(Cl)c4nn5c(-c6ccccc6O)nnc5sc4c(Cl)c3nn12 in this test?
Outgoing: n

Incoming: Which outcome was assigned to COc1cc(C(=O)N2CCOCC2)cc(OC)c1OC in this test?
Outgoing: n

Incoming: Which outcome was assigned to Cc1cc(C)c2c(=N)c3ccccc3n(CCCCCCO)c2n1 in this test?
Outgoing: n

----------
# EC50 per record follows
# System: CEM cells HIV-1 protection, formazan growth assay
# assay_method_text: NCI AIDS Antiviral Assay

- molecule: "CCc1cc(Cc2ccc(C)c(NC(=O)C(=O)C3C(=O)NC(=O)NC3=O)c2CC)cc(C)c1NC(=O)C(=O)C1C(=O)NC(=O)NC1=O"
  value_measured: "> 77.6 µM"
- molecule: "c1ccc(-c2nnc(SSSSc3nnc(-c4ccccc4)o3)o2)cc1"
  value_measured: "> 200 µM"
- molecule: "CC(C)[Si](OC1=CCC[C@H]2NC(=O)[C@@H](Cc3ccccc3)[C@@]12C)(C(C)C)C(C)C"
  value_measured: "> 200 µM"

Incoming: Give EC50 for the following molecule: O=C(O)C(CSC(c1ccccc1)(c1ccccc1)c1ccccc1)N=Cc1cccs1 (configuration not stated)
Outgoing: > 200 µM

Incoming: Give EC50 for the following molecule: COC(=O)C1CCC(=O)N1CN(C(C)=O)c1cc(OC)ccc1OC (configuration not stated)
Outgoing: > 200 µM

Incoming: Give EC50 for the following molecule: CN(C)c1c(-c2ccc(Cl)cc2)cc(-c2ccccc2)[nH]c1=O
Outgoing: > 20.9 µM

Incoming: Give EC50 for the following molecule: COc1cc2c(cc1OC)CN1CCc3ccccc3CC1C2 (configuration not stated)
Outgoing: > 200 µM

Incoming: Give EC50 for the following molecule: NNC(=O)CC(=O)Nc1cccc(Cl)c1
Outgoing: > 200 µM

----------
# Test system: CEM cells HIV-1 protection, formazan growth assay
# assay_method_text: NCI AIDS Antiviral Assay;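 active = compounds giving half or more protection of infected cells from virus-caused growth loss, again on retest; inactive = the rest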
# output must be one of active, inactive

Illustrative cases are given below, each with its answer.
- compound: "CC1=NC(C(C)C)C(=O)O1 (configuration not stated)"
  experimental_system: "CEM cells HIV-1 protection, formazan growth assay"
  label_class: "inactive"
- compound: "CC(SS(=O)(=O)O)C(N)=NCc1ccccc1 (configuration not stated)"
  experimental_system: "CEM cells HIV-1 protection, formazan growth assay"
  label_class: "inactive"
- compound: "CCCCCCCCCCCc1noc2c1C(=O)CCC2"
  experimental_system: "CEM cells HIV-1 protection, formazan growth assay"
  label_class: "inactive"
- compound: "CC1(C)NC(=O)[C@]2(C[C@@H](OC(=O)c3ccccc3)C=C2C=O)O1"
  experimental_system: "CEM cells HIV-1 protection, formazan growth assay"
  label_class: "inactive"
- compound: "COC(=O)Cc1cc(O)c(C/C=C(\\C)CC/C=C(\\C)C(O)C(=O)C=C(C)C)cc1O (configuration not stated)"
  experimental_system: "CEM cells HIV-1 protection, formazan growth assay"
  label_class: "active"
- compound: "Cc1cn(C2CC(Br)C(COC(c3ccccc3)(c3ccccc3)c3ccccc3)O2)c(=O)[nH]c1=O (configuration not stated)"
  experimental_system: "CEM cells HIV-1 protection, formazan growth assay"
  label_class: "inactive"

Incoming: Which outcome was assigned to CC(=O)OCC(OC(C)=O)C(Cl)CCl (configuration not stated) in this test?
Outgoing: inactive

Incoming: Which outcome was assigned to Cc1cc(Cl)ccc1C(=O)c1ccc2ccccc2c1C(=O)O in this test?
Outgoing: inactive

Incoming: Which outcome was assigned to COc1ccc2nc3cccc([N+](=O)[O-])c3c(NCCCCCC(=O)O)c2c1 in this test?
Outgoing: inactive

Incoming: Which outcome was assigned to COc1ccc(C(=O)C(C(=O)CCC(=O)Nc2cccc(C(F)(F)F)c2)c2ccccc2)cc1 (configuration not stated) in this test?
Outgoing: inactive

Incoming: Which outcome was assigned to O=[N+]([O-])/C=C(\CS(=O)(=O)c1ccccc1)c1ccc2c(c1)OCO2 in this test?
Outgoing: active

Incoming: Which outcome was assigned to O=C(Nc1nc2c(ncn2C2OC(CO)C(O)C2O)c(=O)[nH]1)c1ccccc1 (configuration not stated) in this test?
Outgoing: inactive

Incoming: Which outcome was assigned to O=[N+]([O-])c1ccc2c(c1)c1nn2CCCCOc2nn(c3ccc([N+](=O)[O-])cc23)CCCCO1 in this test?
Outgoing: inactive

Incoming: Which outcome was assigned to O=C(CCC[n+]1ccccc1)CC(O)(C(F)(F)F)C(F)(F)F in this test?
Outgoing: inactive

Incoming: Which outcome was assigned to COC(=O)c1nc(-c2ccc3c(n2)C(=O)C(N)=C(OC)C3=O)c(N)c(-c2ccc(OC)c(OC)c2O)c1C in this test?
Outgoing: inactive

Incoming: Which outcome was assigned to CCCCCCCCCCCC(=O)OCCNC(=O)C[n+]1ccccc1 in this test?
Outgoing: inactive

----------
# System: CEM cells HIV-1 protection, formazan growth assay
# assay_method_text: NCI AIDS Antiviral Assay
measurement_type: EC50

- molecule: "COc1c(O)c(C=O)c2c(O)c(-c3c(C)cc4c(C(C)C)c(OC)c(O)c(C=O)c4c3O)c(C)cc2c1C(C)C"
  measurement_type: "EC50"
  value_measured: "> 151 µM"

Incoming: Give EC50 for the following molecule: CNC(=O)CCCNC(=O)CCCC(=O)OC
Outgoing: > 200 µM

Incoming: Give EC50 for the following molecule: COC(=O)[C@]1(C)CCC[C@@]2(C)C1CC[C@@]13C=C(C(C)C)[C@@H](CC1=O)CC23 (some centres undefined)
Outgoing: > 200 µM

Incoming: Give EC50 for the following molecule: CNC(=O)O/N=C1\N(C)CN(c2ccccc2)C12CCN(CCCC(=O)c1ccc(F)cc1)CC2
Outgoing: > 200 µM

Incoming: Give EC50 for the following molecule: C#Cc1cccc(N2C(=O)c3c(c(-c4ccccc4)c(-c4ccc(Cc5ccc(-c6c(-c7ccccc7)c7c(c(-c8ccccc8)c6-c6ccccc6)C(=O)N(c6cccc(C#C)c6)C7=O)cc5)cc4)c(-c4ccccc4)c3-c3ccccc3)C2=O)c1
Outgoing: > 23.4 µM

Incoming: Give EC50 for the following molecule: CCCCCCC1CCC2CCCC(C)N12 (centres undefined)
Outgoing: > 162 µM

Incoming: Give EC50 for the following molecule: COc1cc(C=C2C(=O)OC(C)(C)OC2=O)cc(OC)c1OC
Outgoing: > 776 µM

Incoming: Give EC50 for the following molecule: CC(=O)NNc1nc(C)c(C(=O)NNC(=O)C(=O)Nc2ccc(C)c(C)c2)s1
Outgoing: > 170 µM

Incoming: Give EC50 for the following molecule: Clc1ccc(C=Nc2ccc(SSc3ccc(N=Cc4ccc(Cl)cc4)cc3)cc2)cc1
Outgoing: > 200 µM
